src = patent US20250027068A1

target: pooled human IgG (human IgG1, 2, 3 and 4) (human); assay: cell-based or functional assay; further: test concentration or dose not given here
Measured Enzyme Activity Endpoint Assay: Fc accompanies every entry in the list below.
Number only, in ng/µL; omit the unit.

Binder | Unit Text | Reported Measurement
PRT-417 (enzyme) MTITSVWTKGVTPPTPEDFRYNNEDVLHAPYVANQGWYDITKTFDGKDNLLCGAATAGNMLHWWFDQNKEEIERYLKKHPEKQKIIFNNQELFDVKAAIDTKDSQTNSKLFNYFRDKAFPNLSARQLGVMPDLVLDMFINGYYLNLGKTQSTDVNRPYQDKDKRGGIFDAVFTRGDQTTLLTARHDLKNKGLNEISDLIKQELTEGKALALSHTYANVRINHVINLWGADFDAEGELIAIYVTDSDANASIGMKKYFVGVNANGKVAISAKKIEGDNIGAQVLGLFTLSTGQDIWQKLS | ng/µL | 27

input: Which value of Enzyme Activity Endpoint Assay: Fc has been reported for PRT-386 (enzyme) MVTSVWTKGVTPPTNFTYGEDVLHAPYVANQGWYDITKTFNGKDDLLCGAATAGNMLHWWFDQNKEQIENYLKKHPEKQKINFNGEQMFDVKEAIDTKDSQLDSKLFEYFKEKAFPYLSTKHLGVFPDHVIDMFINGYRLSLTNHGPTPVKRGSKDPRGGIFDAVFTRGDQSKLLTNRHDFKEKTLKEISDLIKQELTEGKALGISHTYANVRINHVINLWGADFDAEGNLEAIAVTDSDSNASIGMKKYFVGVNSNGKVAISAKEIEEDNIGAQVLGLFTLSTGQDIWNQTN in the records?
output: 337

input: Which value of Enzyme Activity Endpoint Assay: Fc has been reported for PRT-396 (enzyme) MVTSVWTKGVTPPADFTQGEDVFHAPYVANQGWYDITKTFNGKDDLLCGAATAGNMLHWWFDQNKEYIEAYLKKHPEKQKIMFGDQELLDVRKAINTKGSQKNSELFNYFRDKAFPNLSARRLGVMPDLVLDMFINGYYLNVTKTQTTDVNRTYQEKDKRGGIFDAVFTRGDQSKLLTSRHDFKEKGLKEISDLIKQELTEGKALGLSHTTANVRINHVINLWGADFDSDGNLKAIYVTDSDSNASIGMKKYFVGVNSAGKVAISAKEIKEDNIGAQVLGLFTLSTGQDIWNQTN in the records?
output: 92

input: Which value of Enzyme Activity Endpoint Assay: Fc has been reported for PRT-401 (enzyme) MVTSVWTKGVTPPADFTQGEDVFHAPYVANQGWYDITKEFNGKDDLLCGAATAGNMLHWWFDQNKEYIEAYLKKHPEKQKIMFGDQELLDVRKAINTKGSQKNSELFNYFRDKAFPNLSARRLGVMPDLVLDMFINGYYLNVTKTQTTDVNRTYQEKDKRGGIFDAVFTRGDQSKLLTSRHDFKEKGLKEISDLIKQELTEGKALGLSHTYANVRINHVINLWGADFDSDGNLKAIYVTDSDSNASIGMKKYFVGVNSAGKVAISAKEIKEDNIGAQVLGLFTLSTGQDIWNQTN in the records?
output: 329
